Listed molecules paired with reported DR/DR LNA
Test: Probe fluorescence ratio response to linolenic acid relative to ADIFAB2
Assay type: binding
Conditions: response relative to ADIFAB2
Form rule: numeric answer, no unit written next to it.

>  <molecule>
70Q, 72A (protein, listed as Rattus norvegicus, PEPTIDE (1)...(131) wild-type rat intestinal fatty acid binding protein) AFDGTWKVDRNENYEKFMEKMGINVVKRKLGAHDNLKLTITQEGNKFTVKESSNFRNIDVVFELGVDFAQSAADGTELTGTWTMEGNKLVGKFKRVDNGKELIAVREISGNELIQTYTYEGVEAKRIFKKE

>  <DR/DR LNA>
1.622

$$$$
>  <molecule>
72A 73W 74E (protein, listed as Rattus norvegicus, PEPTIDE (1)...(131) wild-type rat intestinal fatty acid binding protein) AFDGTWKVDRNENYEKFMEKMGINVVKRKLGAHDNLKLTITQEGNKFTVKESSNFRNIDVVFELGVDFAYSAWEGTELTGTWTMEGNKLVGKFKRVDNGKELIAVREISGNELIQTYTYEGVEAKRIFKKE

>  <DR/DR LNA>
5.422

$$$$

Which DR/DR LNA reading was recorded for the molecule 18V 31Y 55I 73G 72A (protein, listed as Rattus norvegicus, PEPTIDE (1)...(131) wild-type rat intestinal fatty acid binding protein) AFDGTWKVDRNENYEKFVEKMGINVVKRKLYAHDNLKLTITQEGNKFTVKESSNIRNIDVVFELGVDFAYSAGDGTELTGTWTMEGNKLVGKFKRVDNGKELIAVREISGNELIQTYTYEGVEAKRIFKKE ?
1.228

Origin of measurements: patent US20060257938A1
